Origin of measurements: paper PMC8549013

Assayed System: A117S/D121G/P323V/F318C dDAT (quadruple dDAT mutant) (Drosophila melanogaster, UniProt Q7K4Y6, A117S/D121G/F318C/P323V)
Measurement Protocol: MAT-Ca2+ assay: inhibition of DA-induced Ca2+ signals
Format: cell-based
Details: Table 1 dataset, without DA pre-pulse
Readout: IC50 (nM)

[[record]]
compound = "CCCC(C(=O)c1ccc2c(c1)OCO2)N1CCCC1 (stereo not shown)"
recorded_value = 253

